# target: angiotensin II type 1 receptor (Oryctolagus cuniculus, UniProt P34976)
# Construct: By using a specimen of isolated rabbit blood vessels
# Sequence (P34976 whole entry): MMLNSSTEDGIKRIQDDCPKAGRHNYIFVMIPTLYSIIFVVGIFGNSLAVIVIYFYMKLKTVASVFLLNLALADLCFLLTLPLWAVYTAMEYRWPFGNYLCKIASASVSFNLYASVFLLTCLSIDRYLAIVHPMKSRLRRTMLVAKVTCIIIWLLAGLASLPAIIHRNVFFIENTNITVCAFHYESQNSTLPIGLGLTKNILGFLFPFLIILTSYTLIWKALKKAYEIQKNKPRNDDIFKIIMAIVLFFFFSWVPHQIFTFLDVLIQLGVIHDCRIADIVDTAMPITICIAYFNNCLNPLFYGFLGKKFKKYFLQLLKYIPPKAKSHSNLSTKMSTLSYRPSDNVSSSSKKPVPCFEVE
# measurement description: Angiotensin II antagonistic activity in isolated rabbit blood vessels
# experimental conditions: angiotensin II (10 nM)-induced contraction of rabbit thoracic aorta ring
# Procedure: By using a specimen of isolated rabbit blood vessels, antagonistic activity of the compounds of the invention against angiotensin II type 1 receptor was estimated from a dose-response curve of angiotensin II-induced blood vessel contraction. During the measurement, the inside temperature of the magnus bath was maintained at 37° C. and the bath was continuously ventilated with a sufficient amount of mixed gas (95% O2 and 5% CO2). […]
quantity name: pIC50
Answers are plain numbers, as −log10 of the molar value.

Use these answered entries as a reference point.
CCCCc1nc(C)n(-c2ncc(OC3CCC(=O)CC3)cn2)c(=O)c1Cc1ccc(-c2ccccc2-c2nnn[nH]2)cc1: 8.11
CCCCc1nc(C)n(-c2ncc(OCCCC(=O)OCC)cn2)c(=O)c1Cc1ccc(-c2ccccc2-c2nnn[nH]2)cc1: 6.62
CCCCc1nc(C)n(-c2ncc(OCCCNC(C)=O)cn2)c(=O)c1Cc1ccc(-c2ccccc2-c2nnn[nH]2)cc1: 8.62

Alright, here's another compound for you.
Exam item: Item CCCCc1nc(C)n(-c2ncc(OCCc3nc(-c4ccccc4)oc3C)cn2)c(=O)c1Cc1ccc(-c2ccccc2-c2nnn[nH]2)cc1 with angiotensin II type 1 receptor (Oryctolagus cuniculus, UniProt P34976) - pIC50?
Marked response: 6.46
